System: HOP-62
assay text: NCI tumour cell line growth inhibition, 48 h
Activity calls are given as the source filed them. Rule as the data show it: active = GI50 up to about 1.1 µM and inactive = higher.
Please state which outcome applies, choosing from YES for active, NO for inactive

Consider the worked cases shown below.
compound | assay system | answer label
Clc1ccc(C2C3COc4ccccc4C3=NN2c2ccccc2)cc1 (centres undefined) | HOP-62 | NO
COc1cc2c(/C=C3/C(=O)Nc4ccccc43)c(Cl)n(Cc3ccc(Cl)cc3)c2cc1C | HOP-62 | YES
N#Cc1c(NC(=S)Nc2ccccc2)sc2c1CCCC2 | HOP-62 | NO
COC(=O)[C@@H]1C(=O)O[C@@H](c2cc(OC)c(OC)cc2OC)[C@@H]1C(=O)OC.COC(=O)[C@H]1C(=O)O[C@@H](c2cc(OC)c(OC)cc2OC)[C@@H]1C(=O)OC | HOP-62 | NO
O=C(CCNC(=O)OCc1ccccc1)OCCCNC(=O)OCc1ccccc1 | HOP-62 | NO

Called result for COc1ccc(NC(C)=O)cc1N1C(=O)/C(=C\c2ccccc2)SC1c1cc(OC)c(OC)c(OC)c1 (centres undefined)
NO

Called result for N=C(N)SCCSC(=N)N
NO

Called result for CCC1C(C(=O)Nc2ccccc2C)=C(C)NC(C)=C1c1ccccc1C (centres undefined)
NO

Called result for Nc1ccn(C2OC(COP(=O)(O)O)C(O)C2O)c(=O)n1 (centres undefined)
YES

Called result for N#Cc1c(-c2ccccc2)cc(Nc2ccc(Cl)cc2)n2c1nc1ccccc12
NO

Called result for CCOC(=O)C12CCCC1(O)N(NC(=O)OC(C)(C)C)C(C)=C2C(=O)OC (centres undefined)
NO

Called result for CC(=O)c1cccc(Nc2nc3ccc(Cl)cc3c3[nH]c4ccccc4c23)c1
NO

Called result for CC(=O)O[C@@H]1C2=C(C)C=C(O2)[C@H]2O[C@]2(C)C[C@H]2C=C(C(=O)O2)[C@H](OC(C)=O)CC1[C@@]1(C)CO1 (some centres undefined)
NO

Called result for CC(C)(CO)CNc1cc(Cl)nc(N)n1
NO

Called result for Cc1ccc(S(=O)(=O)OC2CS[S+]([O-])CC2OS(=O)(=O)c2ccc(C)cc2)cc1 (centres undefined)
NO

Called result for O=C(CCCCCCCCC(=O)OCC1OC(n2cnc3c(=O)[nH]cnc32)C(O)C1O)OCC1OC(n2cnc3c(=O)[nH]cnc32)C(O)C1O (centres undefined)
NO

Called result for O=c1c2ccccc2nc2n1CCc1c-2[nH]c2cc3c(cc12)OCO3
NO

Called result for N=C(N)NS(=O)(=O)c1ccc(NC(=O)c2c3ccccc3nc3ccccc23)cc1
NO

Called result for CS(=O)(=O)Oc1cccc(/C=N/N=C(\N)NO)c1
NO

Called result for C/C(CC(=O)NC1=CC=C(NC(=O)C/C(C)=N\Nc2ccccc2)CC1)=N/Nc1ccccc1
NO

Called result for O=C1CCCN1CCC/N=c1/cc2n(-c3ccc(Cl)cc3)c3ccccc3nc-2cc1Nc1ccc(Cl)cc1
NO

Called result for CCNC(=O)O/N=C1\CCC2[C@@H]3CC=C4C[C@@H](OC5CCCCO5)CC[C@]4(C)C3CC[C@]12C (some centres undefined)
NO

Called result for CN(CCCN1C(=O)c2cccc3cc([N+](=O)[O-])cc(c23)C1=O)CCN(C)CCCN1C(=O)c2cccc3cc([N+](=O)[O-])cc(c23)C1=O
NO

src = ChEMBL document CHEMBL1201862
